system: CAKI-1 renal; assay: NCI-60 one-dose screen, 48 h (100 = growth as untreated, 0 = no growth, -100 = all killed); settings: 10 µM
About 83,000 compounds went through this panel and 20% of them were active in at least one assay; those are over-represented in the sample as a whole.
observationType: growth (%)
# value in %; strip the unit string

Past entries and their recorded results:
>  <compound>
O=C(/C=C1\C=CN(CCCCO)c2ccccc21)n1ccc2ccccc21

>  <testedSystem>
CAKI-1 renal

>  <growth (%)>
85.7

$$$$
>  <compound>
C=C1C(=O)O[C@@H]2C[C@@H](C)/C=C\C(=O)[C@](C)(OC(C)=O)C[C@H](OC(=O)/C(C)=C\C)[C@@H]12

>  <testedSystem>
CAKI-1 renal

>  <growth (%)>
-11.1

$$$$
>  <compound>
CC(C)=CCC[C@](C)(O)[C@H]1CC[C@]2(C)[C@@H]1CC[C@@H]1[C@@]3(C)CCC(NC(=O)c4ccccc4C(=O)O)C(C)(C)[C@@H]3CC[C@]12C (stereo partly drawn)

>  <testedSystem>
CAKI-1 renal

>  <growth (%)>
66.4

$$$$

Consider the compound COc1ccc(-c2cc(-c3cccc4ccccc34)n3c(n2)nc2ccccc23)cc1OC and give its measured growth.
17.3

Also check Oc1ccc(CSc2nnc(-c3cnccn3)n2-c2ccccc2)c2cccnc12
16.7

Also check COc1ccc(-c2nc(SCCC(C)C)nc(N/N=C\c3ccc(O)cc3)c2C#N)cc1
78

Also check O=C(NCCCCCCNC(=O)c1c2c(nc3ccccc13)-c1cccnc1SC2)c1c2c(nc3ccccc13)-c1cccnc1SC2
61.5

Also check COc1ccc(S(=O)(=O)n2cc(C=O)c3ccccc32)c(OC)c1
52.5

Each recorded value in this set is attributed to PubChem BioAssay (NCI).
